assay text: Phase I study CXR1002-001: plasma pharmacokinetics (LC-MS/MS)
Type: in vivo, human
condition info: human, plasma, oral, 600 mg, Patient 023, 600 mg, person, plasma, 360 hr (Day 16); read-out: Concentration
measurement label: concentration at 360 h (µM)
// return numeric value only (unit: µM, not printed)

Given the entry O=C(O)C(F)(F)C(F)(F)C(F)(F)C(F)(F)C(F)(F)C(F)(F)C(F)(F)F [CXR1002] , report its measured concentration at 360 h.
616

====

assay text: Phase I study CXR1002-001: plasma pharmacokinetics (LC-MS/MS)
Assay type: in vivo, human
condition info: human, plasma, oral, 100 mg, Patient 005 Dose 100 mg; 192 hr (Day 9); read-out: Concentration
measurement label: concentration at 192 h (µM)
// return numeric value only (unit: µM, not printed)

Given the entry `O=C(O)C(F)(F)C(F)(F)C(F)(F)C(F)(F)C(F)(F)C(F)(F)C(F)(F)F` , report its measured concentration at 192 h.
34.4

====

assay text: Phase I study CXR1002-001: plasma pharmacokinetics (LC-MS/MS)
Type: in vivo, human
condition info: human, plasma, oral, 750 mg, Patient 026, 750 mg, person, plasma, 360 hr (Day 16); read-out: Concentration
measurement label: concentration at 360 h (µM)
// return numeric value only (unit: µM, not printed)

Given the entry `O=C(O)C(F)(F)C(F)(F)C(F)(F)C(F)(F)C(F)(F)C(F)(F)C(F)(F)F` , report its measured concentration at 360 h.
625

====

assay text: Phase I study CXR1002-001: plasma pharmacokinetics (LC-MS/MS)
Assay type: in vivo, human
condition info: human, plasma, po, 1000 mg, Patient 041, 1000 mg weekly oral dose, Time 172 hr; read-out: Concentration (plasma level)
measurement label: concentration at 172 hr

Given the entry O=C(O)C(F)(F)C(F)(F)C(F)(F)C(F)(F)C(F)(F)C(F)(F)C(F)(F)F [CXR1002] , report its measured concentration at 172 hr.
357 µM

====

assay text: Phase I study CXR1002-001: plasma pharmacokinetics (LC-MS/MS)
Type: in vivo, human
condition info: human, plasma, oral, 200 mg, Patient 008 Dose 200 mg; 504 hr (Day 22); read-out: Concentration
measurement label: concentration at 504 h
Number first, unit second.

Given the entry `O=C(O)C(F)(F)C(F)(F)C(F)(F)C(F)(F)C(F)(F)C(F)(F)C(F)(F)F` , report its measured concentration at 504 h.
277 µM

====

assay text: Phase I study CXR1002-001: plasma pharmacokinetics (LC-MS/MS)
Assay type: in vivo, human
condition info: female, human, plasma, oral, Female, plasma, 172 hr; read-out: Concentration
measurement label: concentration at 172 h (µM)
// return numeric value only (unit: µM, not printed)

Given the entry `O=C(O)C(F)(F)C(F)(F)C(F)(F)C(F)(F)C(F)(F)C(F)(F)C(F)(F)F` , report its measured concentration at 172 h.
248

====

assay text: Phase I study CXR1002-001: plasma pharmacokinetics (LC-MS/MS)
Type: in vivo, human
condition info: human, plasma, oral, 100 mg, Patient 005 Dose 100 mg; 172 hr; read-out: Concentration
From the text: PK samples, PD (fasting) samples, blood glucose, and blood triglyceride samples, were taken over a 6-week period. Dose limiting toxicity (DLT) will be based on the toxicity assessments over the first 3-week period of the repeat dosing schedule. […]
measurement label: concentration at 172 h (µM)
// return numeric value only (unit: µM, not printed)

Given the entry O=C(O)C(F)(F)C(F)(F)C(F)(F)C(F)(F)C(F)(F)C(F)(F)C(F)(F)F [CXR1002] , report its measured concentration at 172 h.
45.7

Recorded values, source patent US20130029928A1.
